# test: Pharmacokinetics in the rat
# Type: in vivo
# condition set: plasma, iv, dose 0.3 mg/kg, read-out: Vss

compound: O=S(=O)(CCCC(F)(F)F)Oc1cccc(-c2cccc(C(F)(F)F)c2)c1 [Example 2]
Vd [L/kg]: 5.8

----------
# test: Pharmacokinetics in the rat
# Assay type: in vivo
# condition set: plasma, iv, dose 0.3 mg/kg

molecule: O=S(=O)(CCCC(F)(F)F)Oc1cccc(-c2cccc(C(F)(F)F)c2)c1 [Example 2]
half-life [min]: 132

----------
# test: Pharmacokinetics in the rat
# Type: in vivo
# condition set: plasma, oral, dose 3 mg/kg
observed property: half-life

compound: O=S(=O)(CCCC(F)(F)F)Oc1cccc(-c2cccc(C(F)(F)F)c2)c1 [Example 2]
val: 102 min
